Readings of cytotoxicity for the listed compounds
TEST METHOD NOTES: HT1080 cell viability loss – fluorescence readout (AID 620);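 further: cells exposed to compound overnight then 4 h with Alamar Blue; 0% = vehicle DMSO and 100% = killing control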
TEST CONTEXT: at 10 µM, hits give high values
Screen size: about 87,000 compounds; about 360 (0.41%) were called active. This excerpt belongs to a sample that is enriched for actives.

[
  {
    "COMPOUND": "COCCCNC(=O)Cn1cc2c(n1)CCC(C)C2 (stereo not given)",
    "cytotoxicity [%]": -3.5
  },
  {
    "COMPOUND": "CCc1ccc2nc(SCC(=O)N3CC(=O)Nc4ccccc43)c(C#N)cc2c1",
    "cytotoxicity [%]": -5.8
  },
  {
    "COMPOUND": "COc1cc(C2=NOC(C(=O)NCc3ccccn3)C2)cc(OC)c1OC (stereo not given)",
    "cytotoxicity [%]": -2.6
  },
  {
    "COMPOUND": "COc1ccc(C(C)=O)cc1COC(=O)c1c(C)noc1C",
    "cytotoxicity [%]": 14
  },
  {
    "COMPOUND": "O=C(Cc1n[nH]c(=O)c2ccccc12)OCC(=O)c1ccc2c(c1)OCCO2",
    "cytotoxicity [%]": 60.4
  }
]

* * *

TEST METHOD NOTES: HT1080 cell viability loss – fluorescence readout (AID 620);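 further: cells exposed to compound overnight then 4 h with Alamar Blue; 0% = vehicle DMSO and 100% = killing control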
TEST CONTEXT: at 10 µM, hits give high values
The campaign covered roughly 87,000 compounds. About 360 (0.41%) were called active. What follows is part of a selection rich in actives, with near analogues and random picks from the rest.

[
  {
    "COMPOUND": "CCC(=O)Nc1ccc(NC(=O)c2cc3ccccc3o2)cc1",
    "MEASURE UNIT": "%",
    "cytotoxicity": -1.5
  },
  {
    "COMPOUND": "Cn1c(SCC(=O)NC2CCCC2)nnc1-c1ccc(S(=O)(=O)N2CCOCC2)cc1",
    "MEASURE UNIT": "%",
    "cytotoxicity": 4.3
  },
  {
    "COMPOUND": "COc1ccc(Cl)cc1S(=O)(=O)N1CCN(C(=O)c2cc(OC)c(OC)c(OC)c2)CC1",
    "MEASURE UNIT": "%",
    "cytotoxicity": -2.5
  },
  {
    "COMPOUND": "O=C(O)C1C2CCC(O2)C1C(=O)Nc1cnn(Cc2ccccc2)c1 (configuration not stated)",
    "MEASURE UNIT": "%",
    "cytotoxicity": 13
  },
  {
    "COMPOUND": "Cn1cc(/C=N/n2cnc3sc4c(c3c2=O)CCCC4)c2ccccc21",
    "MEASURE UNIT": "%",
    "cytotoxicity": -0.6
  },
  {
    "COMPOUND": "CCOC(=O)COc1cccc2c(=O)n(CC(=O)NCc3ccc4c(c3)OCO4)ccc12",
    "MEASURE UNIT": "%",
    "cytotoxicity": 13.3
  },
  {
    "COMPOUND": "Cc1ccccc1-n1c(SCC(=O)N2CCN(c3ccccc3)CC2)nnc1-c1ccncc1",
    "MEASURE UNIT": "%",
    "cytotoxicity": -3.7
  },
  {
    "COMPOUND": "O=C(Nc1ccc(N2CCOCC2)c(Cl)c1)c1ccc(F)cc1",
    "MEASURE UNIT": "%",
    "cytotoxicity": 56.2
  },
  {
    "COMPOUND": "Cc1ccc(NS(=O)(=O)c2ccccc2Cl)c2c1CC(C)(C)O2",
    "MEASURE UNIT": "%",
    "cytotoxicity": 62.3
  },
  {
    "COMPOUND": "COc1ccc(C(=O)N2CCN(C(=O)c3cc(OC)c(OC)c(OC)c3)CC2)cc1",
    "MEASURE UNIT": "%",
    "cytotoxicity": -0.7
  },
  {
    "COMPOUND": "Cc1ccccc1-c1nc(CN2CCCC(C(=O)NCc3cccnc3)C2)c(C)o1 (configuration not stated)",
    "MEASURE UNIT": "%",
    "cytotoxicity": -7.7
  },
  {
    "COMPOUND": "COCCNC(=O)C(c1cccs1)N(C(=O)Cn1nnc2ccccc21)c1ccccc1 (configuration not stated)",
    "MEASURE UNIT": "%",
    "cytotoxicity": 2.1
  }
]
